test: Phase 2 study Part 1: pharmacokinetics in HAE patients; type: in vivo; conditions: human, plasma, 600 mg single oral dose, n = 27, preliminary, read-out: Cmax Mean (95% CI)
metric: Cmax (µg/mL)
Give the value in µg/mL but do not write µg/mL after it.

Exercise: Name the reported Cmax value associated with the compound COCc1nn(Cc2ccc(Cn3ccccc3=O)cc2)cc1C(=O)NCc1nccc(OC)c1F
Key: 5.91
